test system: Rattus norvegicus; assay: Antiinflammatory activity in albino rat assessed as inhibition of carrageenan-induced paw edema at 100 mg/kg, po administered 1 hr prior to carrageenan-challenge measured after 1 hr; type: functional
Property Label: inhibition in vivo at 100 mg/kg (%)
State just the number; it will be interpreted in %.

Sample answers from the record:
- Query Smiles: "N#Cc1c(-c2ccccc2)nc(SCC(=O)Nn2c(COc3ccc(Cl)cc3Cl)nc3ccccc3c2=O)n(Cc2ccccc2)c1=O"
  inhibition in vivo at 100 mg/kg (%): 77.3
- Query Smiles: "Cn1c(SCC(=O)Nn2c(COc3ccc(Cl)cc3Cl)nc3ccccc3c2=O)nc(-c2ccc(Cl)cc2)c(C#N)c1=O"
  inhibition in vivo at 100 mg/kg (%): 76.4
- Query Smiles: "N#Cc1c(Cl)nc(SCC(=O)Nn2c(COc3ccc(Cl)cc3Cl)nc3ccccc3c2=O)nc1-c1ccccc1"
  inhibition in vivo at 100 mg/kg (%): 60

Query: State its inhibition in vivo at 100 mg/kg on Rattus norvegicus: N#Cc1c(Cl)nc(SCC(=O)Nn2c(COc3ccc(Cl)cc3Cl)nc3ccccc3c2=O)nc1-c1ccc(O)cc1
Reply: 72.7

---

tested on: Rattus norvegicus; assay: Antiinflammatory activity in albino rat assessed as inhibition of carrageenan-induced paw edema at 100 mg/kg, po administered 1 hr prior to carrageenan-challenge measured after 0.5 hrs; type: functional
Property Label: inhibition in vivo at 100 mg/kg (%)
State just the number; it will be interpreted in %.

- Query Smiles: "N#Cc1c(Cl)nc(SCC(=O)Nn2c(COc3ccc(Cl)cc3Cl)nc3ccccc3c2=O)nc1-c1ccc(Cl)cc1"
  Property Label: "inhibition in vivo at 100 mg/kg"
  Assay Value: 61.5
- Query Smiles: "N#Cc1c(Nc2ccccc2)nc(SCC(=O)Nn2c(COc3ccc(Cl)cc3Cl)nc3ccccc3c2=O)nc1-c1ccc(O)cc1"
  Property Label: "inhibition in vivo at 100 mg/kg"
  Assay Value: 90.4

Proceed to the following item.
Query: Tell me the measured inhibition in vivo at 100 mg/kg of N#Cc1c(Nc2ccc(Cl)cc2)nc(SCC(=O)Nn2c(COc3ccc(Cl)cc3Cl)nc3ccccc3c2=O)nc1-c1ccc(Cl)cc1 , please.
Reply: 46.1
